System: Rattus norvegicus
Experiment summary: Dose producing 30% decrease in blood pressure of anesthetized spontaneously hypertensive rats (SHR's)
Assay type: functional
Measure name: ED30 (mg/kg)
Numbers only, in mg/kg.

{"columns": ["Compound", "Measure name", "Unit annotation", "Test result"],
 "data": [
  ["CCCCC#Cc1nc(N)c2ncn(C3O[C@H](C/N=C(\\S)NC)[C@@H](O)[C@H]3O)c2n1 (stereo partly drawn)", "ED30", "mg/kg", 0.0545]
]}

With those in mind, consider the next compound.
For reference, reported ED30 for CCCCC#Cc1nc(N)c2ncn([C@@H]3O[C@H](C(N)=O)[C@@H](O)[C@H]3O)c2n1 stands at 0.00018
